System: LOX IMVI melanoma
test-method-notes: NCI tumour cell line growth inhibition, 48 h; in the data active = GI50 below about 0.43 µM; inactive = the rest
Outcomes: active, inactive

> print(dat)
                                   compound  assigned.label
1           COc1c2c3ccccc3nc-2n(C)c2ccccc12        inactive
2              NC(=O)C1c2ccccc2C=Cc2ccccc21        inactive
3  O=C(CSc1nc2ccccc2nc1-c1ccccc1)Nc1ccc(Cl)cc1        inactive
4  COC(=O)[C@@]1(Cc2ccccc2)[C@H]2c3cc(C(=O)N4CCCC4)n(Cc4ccc(OC)c(OC)c4)c3C[C@H]2CN1C(=O)c1ccccc1        inactive
5             CC(C)CCSC1=CC(=O)c2ccccc2C1=O        inactive
6  CCN1C(=O)N(CC)C2C1NN=c1s/c(=C\c3ccccc3F)c(=O)n12 (configuration not stated)          active
7  O=C(N/N=C/c1ccccc1O)C(O)(c1ccccc1)c1ccccc1        inactive

* * *

Test system: IGROV1 ovarian
test-method-notes: NCI tumour cell line growth inhibition, 48 h
result-type: TGI

> print(dat)
                                    molecule  result.type  recorded.result
 1  CC(C)(Br)C(Br)CCC(=CCBr)CBr (mixture of isomers)          TGI           8.9 µM
 2  CCC(=O)C1(N2CCOCC2)CCN(CCCC(=O)c2ccc(F)cc2)CC1          TGI         > 100 µM
 3  O=C(CSc1nc2ccccc2nc1-c1ccccc1)Nc1ccc(Cl)cc1          TGI         > 100 µM
 4  Cn1c2c(c3ccccc31)CCN1OCC=C[C@@H](C(=O)O)[C@@H]21          TGI         > 100 µM
 5               Cc1c(C#N)c(N)[nH]c(=S)c1C#N          TGI         > 100 µM
 6  C=C(C)[C@@H]1CC[C@]2(C(N)=O)CC[C@]3(C)[C@H](CC[C@@H]4[C@@]5(C)CC[C@H](O)C(C)(C)[C@@H]5CC[C@]43C)[C@@H]12          TGI          14.5 µM
 7                CC(C)N(C(=O)C1(C)CC1)C(C)C          TGI         > 100 µM
 8   CC(C)(C)OC(=O)[C@@H]1CCC(=S)N1Cc1ccccc1          TGI         > 100 µM
 9  O=C(N/N=C/c1ccccc1O)C(O)(c1ccccc1)c1ccccc1          TGI         > 100 µM
10  C=CC(=O)N1C/C(=C\c2ccccc2)C(=O)/C(=C/c2ccccc2)C1          TGI           4.2 µM

* * *

TGI by entry:
Test system: NCI-H522 lung
test-method-notes: NCI tumour cell line growth inhibition, 48 h

compound	tested-on	TGI
COC(=O)C(Cc1cnc[nH]1)NC(=O)CNC(=O)CCCn1c(=O)c2c3ccccc3n(C)c2n2nnc(-c3ccccc3)c12 (configuration not stated)	NCI-H522 lung	> 100 µM
O=C1Nc2cc(Cl)ccc2N=CC1NC(=O)C(c1ccccc1)c1ccccc1Cl (configuration not stated)	NCI-H522 lung	> 100 µM
Cc1[nH]n(C2=NCCN2)c(=O)c1C	NCI-H522 lung	> 100 µM
COCc1c(CO)cnc(C)c1OC1OC(CO)C(O)C(O)C1O (configuration not stated)	NCI-H522 lung	> 100 µM
CC1=C(C)CC(C#N)(C#N)C(C#N)(C#N)C1	NCI-H522 lung	> 2.72 µM
COc1ccc(CC2c3cc(OC)c(OC)c(OC)c3CC[N+]2(C)C)cc1Oc1ccc(CC2c3cc4c(c(OC)c3CC[N+]2(C)C)OCO4)cc1 (configuration not stated)	NCI-H522 lung	> 100 µM
Fc1ccc(-c2nn3c(CNc4ccccc4)nnc3s2)cc1	NCI-H522 lung	> 100 µM
Cn1c2c(c3ccccc31)CCN1OCC=C[C@@H](C(=O)O)[C@@H]21	NCI-H522 lung	> 100 µM
CC(C)C1C(=O)NC(CO)Cc2c[nH]c3c(C(c4c[nH]c5ccccc45)C(O)CO)ccc(c23)N1C (configuration not stated)	NCI-H522 lung	> 100 µM
COC(=O)C(Cc1ccccc1)NC(=O)C(CCC(=O)OCc1ccccc1)NC(=O)OC(C)(C)C (configuration not stated)	NCI-H522 lung	> 100 µM
CCCCCN1CCN(c2ncccn2)CC1	NCI-H522 lung	> 100 µM
COC(=O)[C@H]1C(=O)[C@@]2(C)[C@H]([C@H](OC(=O)c3ccccc3)[C@]3(O)C[C@H](OC(=O)[C@H](O)[C@@H](NC(=O)c4ccc(F)cc4)c4ccccc4)C(C)=C1C3(C)C)[C@]1(OC(C)=O)CO[C@@H]1C[C@@H]2O	NCI-H522 lung	> 7.4 µM

* * *

System: PC-3 prostate
test-method-notes: NCI tumour cell line growth inhibition, 48 h
TGI by entry:
result-type: TGI

> print(dat)
                                    molecule  recorded.result
 1  Cc1cc(C(=O)Nc2nc3cccc(Cl)c3n2[C@@H]2CCCCN(C(=O)/C=C/CN(C)C)C2)ccn1          28.2 µM
 2  CN(C)C(=S)N1C(=S)N(c2ccccc2)C(=Nc2ccccc2)C1=Nc1ccccc1         > 100 µM
 3  COC(=O)C(Cc1ccccc1)NC(=O)C(CCC(=O)OCc1ccccc1)NC(=O)OC(C)(C)C (centres undefined)         > 100 µM
 4         CCn1ncc2c1nc(-c1ccccc1)c[n+]2[O-]         > 100 µM
 5       Cc1c(-c2ccccc2)[nH]c2ccc(Cl)cc2c1=O         > 100 µM
 6  O=Cc1ccc(-c2ccc(-c3nc4ccccc4[nH]3)cc2)s1          40.3 µM
 7  CCN1C(=O)N(CC)C2C1NN=c1s/c(=C\c3ccccc3F)c(=O)n12 (centres undefined)         > 100 µM
 8  CN(C)CCCNC(=O)c1cc(NC(=O)c2cc(NS(=O)(=O)c3ccc4c(c3)C(=O)c3ccccc3C4=O)cn2C)cn1C         > 100 µM
 9  CC1(C)Oc2ccc3c(=O)c(-c4ccccc4)c(-c4ccccc4)oc3c2C1C(=O)O (centres undefined)         > 100 µM
10                         Cc1nnc2sc(Cl)nn12          47.2 µM
11  CCc1c2c(nc3cc4c(c(N)c13)OCO4)-c1cc3c(c(=O)n1C2)COC(=O)[C@]3(O)CC         > 100 µM
12      Cc1ccccc1[P+](C)(c1ccccc1C)c1ccccc1C          55.2 µM
13          Cc1cc(=O)oc2cc(SC(=O)N(C)C)ccc12         > 100 µM
14  C/C(=C/c1ccccc1)CN(C(=O)/C=C\Sc1ccccc1)C(C)(C)C         > 100 µM
15  C=CCOc1ccc(/C(N=Nc2ccc(C)cc2)=N/NC(=O)c2ccccc2)cc1OC         > 100 µM
16      O=C(NCCc1ccccc1)[C@H]1CCCC[C@@H]1CCO         > 100 µM
17             Cc1ccc(/C=N/Nc2nc3ccccc3s2)s1         > 100 µM
18                Sc1ccc2ccccc2c1CNCc1ccccc1         > 100 µM
19             CCOC(=O)CC(=O)C(=O)NNC1=NCCN1         > 100 µM
20  Cn1c2c(c3ccccc31)CCN1OCC=C[C@@H](C(=O)O)[C@@H]21         > 100 µM
21          CCCc1cc(=O)oc2c(C=O)c(O)cc(O)c12          59.3 µM
22             CCSC1=N/C(=C\c2ccco2)C(NN)=N1          > 50 µM
23             CC(C)CCSC1=CC(=O)c2ccccc2C1=O          6.85 µM
24  CCOC(=O)C(NC(=O)C(CCCCNP(=O)(OCC)OCC)NC(=O)C(C)NC(C)=O)C(C)C (centres undefined)         > 100 µM
25   NC(=NCCCC1(c2ccccc2)CCCC1)Nc1ccc(Cl)cc1          3.12 µM
26  N=C(N)/N=C(\N)c1c(-c2cc(O)ccc2O)nc2sccn12         > 100 µM
27  CCCOc1ccc(-c2nc(-c3ccc(N=Cc4ccc(N(CCOS(C)(=O)=O)CCOS(C)(=O)=O)cc4C)cc3)cs2)cc1          77.9 µM
28          COc1ccc2c(c1)CCN=C2Cc1ccccc1CCCl         > 100 µM
29     NC(=O)c1ccc(NS(=O)(=O)c2ccc(N)cc2)nc1         > 100 µM
